B1: F1*; the commonest letter at each place (parent)
chain: GAGACCGCAACTGAAAAGTTGTTATCACTTGTCGTAAGACACTTTGGATGGGTTGAAGTTCTGCACGTAGAAGCAAAAGGC

Variants of: B1
experimentNotes: fraction ligated after 30 min (ligated reads / total reads); higher = more ligase activity
measurementSetup: with F1*sub RNA substrate (template-directed ligation), 42 °C
For each entry below, report its fraction ligated value.

## Input GET /values?readout=fraction ligated&item= A39T A57C
## Output 0.792

## Input GET /values?readout=fraction ligated&item= T23C G46A
## Output 0.8

## Input GET /values?readout=fraction ligated&item= C28T T30G
## Output 0.791

## Input GET /values?readout=fraction ligated&item= A36C A41T
## Output 0.814

## Input GET /values?readout=fraction ligated&item= A41T G55T
## Output 0.81

## Input GET /values?readout=fraction ligated&item= T29A A41G
## Output 0.816

## Input GET /values?readout=fraction ligated&item= A37T A41T
## Output 0.815

## Input GET /values?readout=fraction ligated&item= C26A A37C
## Output 0.781

## Input GET /values?readout=fraction ligated&item= A27G T44C
## Output 0.81

## Input GET /values?readout=fraction ligated&item= T30G T43C
## Output 0.794

## Input GET /values?readout=fraction ligated&item= A41G T43G
## Output 0.807

## Input GET /values?readout=fraction ligated&item= C28T A36C
## Output 0.801

## Input GET /values?readout=fraction ligated&item= A37C T45A
## Output 0.78

## Input GET /values?readout=fraction ligated&item= T44A A56C
## Output 0.797

## Input GET /values?readout=fraction ligated&item= C28G T44A
## Output 0.791

## Input GET /values?readout=fraction ligated&item= A36C T43A
## Output 0.82

## Input GET /values?readout=fraction ligated&item= T29C T30G
## Output 0.805

## Input GET /values?readout=fraction ligated&item= A27G G55A
## Output 0.801

## Input GET /values?readout=fraction ligated&item= T32C A36G
## Output 0.786

## Input GET /values?readout=fraction ligated&item= A39G T44A
## Output 0.816

## Input GET /values?readout=fraction ligated&item= A41T G46A
## Output 0.804

## Input GET /values?readout=fraction ligated&item= C28G T43A
## Output 0.807

## Input GET /values?readout=fraction ligated&item= G46A A57G
## Output 0.799

## Input GET /values?readout=fraction ligated&item= A37T A41G
## Output 0.799

## Input GET /values?readout=fraction ligated&item= A37T G47A
## Output 0.806

## Input GET /values?readout=fraction ligated&item= T25G T35C
## Output 0.785

## Input GET /values?readout=fraction ligated&item= A39G A56G
## Output 0.792

## Input GET /values?readout=fraction ligated&item= T30G T32C A39G A41C
## Output 0.803

## Input GET /values?readout=fraction ligated&item= A24G T29G
## Output 0.811

## Input GET /values?readout=fraction ligated&item= G34T G55T
## Output 0.81

## Input GET /values?readout=fraction ligated&item= C28A A39G
## Output 0.798

## Input GET /values?readout=fraction ligated&item= G34C A41C
## Output 0.808

## Input GET /values?readout=fraction ligated&item= T29C C40A
## Output 0.791

## Input GET /values?readout=fraction ligated&item= G31C T35G
## Output 0.8

## Input GET /values?readout=fraction ligated&item= T25G C42T
## Output 0.797

## Input GET /values?readout=fraction ligated&item= T32A G34T
## Output 0.823
